In this section, each of the compounds is paired with its reported Tmax.
ASSAY PROTOCOL: Pharmacokinetics in rats after intravenous and intragastric administration
CONDITION NOTES: both, Sprague-Dawley, rat, in vivo, po, 40 mg/kg, Tmax, rats, p.o. 40.0 mg/kg
Description: Fifty-six pathogen-free Sprague-Dawley adult rats comprising 28 males and 28 females (weighing within the range of 200–250 g) were obtained from Drug Safety Evaluation and Research Center of Shanghai University of Traditional Chinese Medicine. Animals were raised under an environmentally controlled breeding room for 7 days before commencing the experiments. […]
State the result as a value with its unit after it.

• COc1ccc2c3c([nH]c2c1)C(C)=NCC3 [Harmaline] = 1.76 h

Need Tmax of COc1ccc2c(c1)[nH]c1c(C)nccc12 [Harmine] , thanks.
0.56 h

* * *

In this section, each of the molecules is paired with its reported Papp B→A at 120 min, 2 μM.
Tested on: MRP2
ASSAY PROTOCOL: Bidirectional transport in MDCK-MRP2 cell monolayers with MRP2 inhibitors
Format: in vitro ADME, canine
CONDITION NOTES: dog; MDCK-MRP2, 2 μM, Control (no inhibitor)
Respond with the bare value in ×10⁻⁶ cm/s.

- COc1ccc2c3c([nH]c2c1)C(C)=NCC3: 32.4

Next up:
Need Papp B→A at 120 min, 2 μM of COc1ccc2c(c1)[nH]c1c(C)nccc12 , thanks.
8.18

* * *

ASSAY PROTOCOL: Pharmacokinetics in rats after intravenous and intragastric administration
CONDITION NOTES: both, Sprague-Dawley, rat, in vivo, po, 40 mg/kg, AUC(0−∞), rats, harmine p.o. 40.0 mg/kg co-administered with probenecid 20.0 mg/kg
MEASUREMENT LABEL: AUC(0-inf)
State the result as a value with its unit after it.

Need AUC(0-inf) of COc1ccc2c(c1)[nH]c1c(C)nccc12 , thanks.
349 ng·h/mL

* * *

In this section, each of the molecules is paired with its reported AUC(0-inf).
ASSAY PROTOCOL: Pharmacokinetics in rats after intravenous and intragastric administration
CONDITION NOTES: both, Sprague-Dawley, rat, in vivo, po, 40 mg/kg, AUC(0−∞), rats, p.o. 40.0 mg/kg
Respond with the bare value in ng·h/mL.

* COc1ccc2c3c([nH]c2c1)C(C)=NCC3 | 666

Next up:
Need AUC(0-inf) of COc1ccc2c(c1)[nH]c1c(C)nccc12 , thanks.
184

* * *

System: Na+/K+-ATPase
ASSAY PROTOCOL: Bidirectional transport in MDCK cell monolayers with selective transporter inhibitors or substrates
Assay type: in vitro ADME, canine
CONDITION NOTES: dog, with sodium vanadate 0.05 mM (50 μM), + Sodium vanadate 0.05 mM (Na^+), read-out: ER
Method: Caco-2, MDCK and MDCK-MRP2 cells were donated by Prof. Yan Xie and Yueming Ma from Shanghai University of Traditional Chinese Medicine. […] The apparent permeability coefficients (Papp) and ER were calculated as Equations (2) and (3): […] where dQ/dt is the steady-state flux, A is the membrane surface area, and C0 is the initial drug concentration in the donor compartment. PappBA is the Papp-value measured in BL to AP direction and PappAB is the Papp-value measured in AP to BL direction. […]
MEASUREMENT LABEL: efflux ratio at 120 min, 2 μM
Lab note: jot down the number only; don't add units.

Need efflux ratio at 120 min, 2 μM of COc1ccc2c3c([nH]c2c1)C(C)=NCC3 [Harmaline] , thanks.
1.26

* * *

ASSAY PROTOCOL: in vitro
CONDITION NOTES: dog, MDCK, PappBA, initial concentration 1 μM
MEASUREMENT LABEL: Papp B→A
State the result as a value with its unit after it.

• COc1ccc2c(c1)[nH]c1c(C)nccc12 = 5.81 ×10⁻⁶ cm/s

Need Papp B→A of COc1ccc2c3c([nH]c2c1)C(C)=NCC3 , thanks.
19.5 ×10⁻⁶ cm/s

* * *

Tested on: MRP2
ASSAY PROTOCOL: Bidirectional transport in MDCK-MRP2 cell monolayers with MRP2 inhibitors
Assay type: in vitro ADME, canine
CONDITION NOTES: dog; MDCK-MRP2, 2 μM, Control (no inhibitor); read-out: ER
MEASUREMENT LABEL: efflux ratio at 120 min, 2 μM
Lab note: jot down the number only; don't add units.

Recall the recorded efflux ratio at 120 min, 2 μM for COc1ccc2c3c([nH]c2c1)C(C)=NCC3 with MRP2 and state it.
1.33

* * *

ASSAY PROTOCOL: Urinary and fecal excretion in rats
Format: in vivo, Sprague-Dawley rats
CONDITION NOTES: after oral harmaline 40.0 mg/kg, 48 h
In this section, each of the molecules is paired with its reported Cumulative excretion in feces (%) of the analyte.
Respond with the bare value in %.

# annotated cases, reported Cumulative excretion in feces (%) of the analyte shown
• Cc1[nH]ccc2c1[nH]c1cc(=O)ccc12 = 1.64
• COc1ccc2c3c([nH]c2c1)C(C)=NCC3 = 0.19
• CC1=NCCc2c1[nH]c1cc(O)ccc21 = 1.87

Next up:
Need Cumulative excretion in feces (%) of the analyte of COc1ccc2c(c1)[nH]c1c(C)nccc12 , thanks.
0.02

* * *

In this section, each of the compounds is paired with its reported Cumulative excretion in urine (%) of the analyte.
ASSAY PROTOCOL: Urinary and fecal excretion in rats
Assay type: in vivo, Sprague-Dawley rats
CONDITION NOTES: after oral harmaline 40.0 mg/kg, 72 h
State the result as a value with its unit after it.

# annotated cases, reported Cumulative excretion in urine (%) of the analyte shown
* CC1=NCCc2c1[nH]c1cc(O)ccc21 | 2.30 ± 2.36%
* COc1ccc2c3c([nH]c2c1)C(C)=NCC3 | 4.85 ± 4.17%
* COc1ccc2c(c1)[nH]c1c(C)nccc12 | 0.05 ± 0.01%

Next up:
Need Cumulative excretion in urine (%) of the analyte of Cc1[nH]ccc2c1[nH]c1cc(=O)ccc12 , thanks.
0.65 ± 0.56%

* * *

System: MDR1
ASSAY PROTOCOL: Bidirectional transport in MDCK cell monolayers with selective transporter inhibitors or substrates
Assay type: in vitro ADME, canine
CONDITION NOTES: dog, with quinidine 0.1 mM (100 μM), + Quinidine 0.1 mM (MDR1)
In this section, each of the compounds is paired with its reported Papp B→A at 120 min, 2 μM.
Respond with the bare value in ×10⁻⁶ cm/s.

- COc1ccc2c3c([nH]c2c1)C(C)=NCC3 [Harmaline]: 22.5

Next up:
Need Papp B→A at 120 min, 2 μM of COc1ccc2c(c1)[nH]c1c(C)nccc12 [Harmine] , thanks.
7.39

* * *

Tested on: MDR1
ASSAY PROTOCOL: in vitro
CONDITION NOTES: human, Caco-2, ER, Caco-2, 2 μM, + Quinidine 0.1 mM (MDR1)
MEASUREMENT LABEL: efflux ratio
Lab note: jot down the number only; don't add units.

Need efflux ratio of COc1ccc2c3c([nH]c2c1)C(C)=NCC3 [Harmaline] , thanks.
0.96

* * *

Test system: MRP2
ASSAY PROTOCOL: Bidirectional transport in MDCK cell monolayers with selective transporter inhibitors or substrates
Format: in vitro ADME, canine
CONDITION NOTES: dog, with probenecid 0.2 mM (200 μM), + Probenecid 0.2 mM (MRP2), read-out: ER
Experimental: Caco-2, MDCK and MDCK-MRP2 cells were donated by Prof. Yan Xie and Yueming Ma from Shanghai University of Traditional Chinese Medicine. […] The apparent permeability coefficients (Papp) and ER were calculated as Equations (2) and (3): […] where dQ/dt is the steady-state flux, A is the membrane surface area, and C0 is the initial drug concentration in the donor compartment. PappBA is the Papp-value measured in BL to AP direction and PappAB is the Papp-value measured in AP to BL direction. […]
MEASUREMENT LABEL: efflux ratio at 120 min, 2 μM

Need efflux ratio at 120 min, 2 μM of COc1ccc2c3c([nH]c2c1)C(C)=NCC3 , thanks.
1.04

* * *

ASSAY PROTOCOL: Pharmacokinetics in rats after intravenous and intragastric administration
CONDITION NOTES: both, Sprague-Dawley, rat, in vivo, po, 40 mg/kg, AUC(0−t), rats, p.o. 40.0 mg/kg
In this section, each of the compounds is paired with its reported AUC(0-t).
Respond with the bare value in ng·h/mL.

- COc1ccc2c3c([nH]c2c1)C(C)=NCC3: 644

Need AUC(0-t) of COc1ccc2c(c1)[nH]c1c(C)nccc12 , thanks.
154
